Entries with their measured pIC50, system BChE (Homo sapiens, UniProt P06276):
// pIC50 is dimensionless: -log10 of concentration (M)

compound="O=C1OC(c2ccc(O)cc2)Cc2cc(O)cc(O)c21 (centres unmarked)" experimental_system="BChE (Homo sapiens, UniProt P06276)" assay_readout=pIC50 recorded_value=4.37

Next item in the queue.
-- ask Item CC(=O)OC[C@H]1O[C@@H](Oc2cccc3c2C(=O)O[C@@H](c2ccc(OC(C)=O)cc2)C3)[C@H](OC(C)=O)[C@@H](OC(C)=O)[C@@H]1OC(C)=O [HGP, hydrangenol 8-O-glucoside pentaacetate] has what recorded pIC50?
-- reply 4.39
